Tested on: johnsongrass (Sorghum halepense, SORHA)
method_description: Pre-emerge test, greenhouse herbicide activity screening
Format: in vivo
test_settings: pre-emerge, 250 g ai/ha, 14 days after application, rating scale 0-100

{"columns": ["molecule", "assay_system", "phytotoxicity rating SORHA"],
 "data": [
  ["C=CC=NNc1c(OC)c(Cl)cc(F)c1-n1c(=O)cc(C(F)(F)F)n(C)c1=O", "johnsongrass (Sorghum halepense, SORHA)", 100],
  ["COc1c(Cl)cc(F)c(-n2c(=O)cc(C(F)(F)F)n(C)c2=O)c1CC(C)(Cl)C(=O)OCC1CCCO1 (stereo not shown)", "johnsongrass (Sorghum halepense, SORHA)", 90],
  ["COc1c(Cl)cc(F)c(-n2c(=O)cc(C(F)(F)F)n(C)c2=O)c1Sc1ccc2ccccc2c1", "johnsongrass (Sorghum halepense, SORHA)", 0],
  ["CCOC(=O)C(Cl)Cc1c(OCC)c(Cl)cc(F)c1-n1c(=O)cc(C(F)(F)F)n(C)c1=O (stereo not shown)", "johnsongrass (Sorghum halepense, SORHA)", 20]
]}

====

Tested on: field corn (Zea mays L., var. Dekalb 535, CORN)
method_description: Post-emerge test, crop safety
Format: in vivo
test_settings: Rate 63 g ai/ha; rating scale 0-100 (0 no damage, 100 complete death); 14 days after application
observable: Post-emerge phytotoxicity rating CORN (crop damage)

{"columns": ["compound", "assay_system", "experimental_result"],
 "data": [
  ["CCCCCOC(=O)C(C)(Cl)Cc1c(OC)c(Cl)cc(F)c1-n1c(=O)cc(C(F)(F)F)n(C)c1=O (stereo not drawn)", "field corn (Zea mays L., var. Dekalb 535, CORN)", 20],
  ["COc1c(Cl)cc(F)c(-n2c(=O)cc(C(F)(F)F)n(C)c2=O)c1CC(Cl)C(=O)OCC(F)(F)C(F)(F)C(F)(F)F (single isomer, unassigned) [14-24]", "field corn (Zea mays L., var. Dekalb 535, CORN)", 10],
  ["COc1c(Cl)cc(F)c(-n2c(=O)cc(C(F)(F)F)n(C)c2=O)c1CC(Cl)C(=O)OCCOc1ccccc1 (single isomer, unassigned) [14-27]", "field corn (Zea mays L., var. Dekalb 535, CORN)", 5]
]}

====

System: upland rice (Oryza sp., var. Tebonnet, RICE)
method_description: Post-emerge test, crop safety
Type: in vivo
test_settings: post-emerge, 250 g ai/ha, 14 days after application, rating scale 0-100

{"columns": ["molecule", "assay_system", "phytotoxicity rating RICE (crop damage)"],
 "data": [
  ["COc1c(Cl)cc(F)c(-n2c(=O)cc(C(F)(F)F)n(C)c2=O)c1NC(=O)OCc1ccc(OC(F)(F)F)cc1 [4-45]", "upland rice (Oryza sp., var. Tebonnet, RICE)", 20],
  ["CCOC(=O)COc1c(Cl)cc(F)c(-n2c(=O)cc(C(F)(F)F)n(C)c2=O)c1NC(=O)C=Cc1ccccc1 [2-190]", "upland rice (Oryza sp., var. Tebonnet, RICE)", 5],
  ["Cn1c(C(F)(F)F)cc(=O)n(-c2c(F)cc(Cl)c(OCC#N)c2NC(=O)OCc2ccccc2)c1=O [4-23]", "upland rice (Oryza sp., var. Tebonnet, RICE)", 80],
  ["COc1c(Cl)cc(F)c(-n2c(=O)cc(C(F)(F)F)n(C)c2=O)c1NC(=O)OCc1cc(F)ccc1F [4-39]", "upland rice (Oryza sp., var. Tebonnet, RICE)", 60],
  ["COc1c(Cl)cc(F)c(-n2c(=O)cc(C(F)(F)F)n(C)c2=O)c1NC(=O)OC(c1ccccc1)C1CC1 (centres unmarked) [4-46]", "upland rice (Oryza sp., var. Tebonnet, RICE)", 70],
  ["Cc1ccc(-n2c(=O)cc(C(F)(F)F)n(C)c2=O)c(NC(=O)c2ccc3ccccc3c2)c1 [2-201]", "upland rice (Oryza sp., var. Tebonnet, RICE)", 65],
  ["COc1c(Cl)cc(F)c(-n2c(=O)cc(C(F)(F)F)n(C)c2=O)c1NC(=O)OCc1ccc(C(C)C)cc1 [4-42]", "upland rice (Oryza sp., var. Tebonnet, RICE)", 0],
  ["Cn1c(C(F)(F)F)cc(=O)n(-c2ccc(Cl)cc2NC(=O)Oc2ccccc2)c1=O [4-50]", "upland rice (Oryza sp., var. Tebonnet, RICE)", 0]
]}

====

System: sicklepod (Cassia obtusifolia, CASOB)
method_description: Pre-emerge test, greenhouse herbicide activity screening
Format: in vivo
test_settings: pre-emerge, rate 63 g ai/ha, phytotoxicity rating 0-100 at 14 days after application
observable: Pre-emerge Herbicidal Activity CASOB

{"columns": ["molecule", "experimental_result"],
 "data": [
  ["COc1c(Cl)cc(F)c(N2C(=O)C3=C(CCCC3)C2=O)c1N", 0],
  ["Cc1ccc(COC(=O)Nc2c(C)c(Cl)cc(F)c2-n2c(=O)cc(C(F)(F)F)n(C)c2=O)cc1", 90],
  ["COc1c(Cl)cc(F)c(-n2nnn(CCCF)c2=O)c1NC(=O)COCc1ccccc1", 100],
  ["COc1c(Cl)cc(F)c(-n2nnn(CCCF)c2=O)c1NC(=O)c1ccc2ccccc2c1", 10],
  ["Cc1c(Cl)cc(F)c(-n2c(=O)cc(C(F)(F)F)n(C)c2=O)c1NC(=O)OCc1cccc([N+](=O)[O-])c1", 40],
  ["COc1c(Cl)cc(F)c(-n2c(=O)n3n(c2=O)CCCC3)c1N", 30],
  ["Cc1c(Cl)cc(F)c(-n2c(=O)cc(C(F)(F)F)n(C)c2=O)c1NC(=O)OCc1ccco1", 50],
  ["COc1ccc(COC(=O)Nc2c(C)c(Cl)cc(F)c2-n2c(=O)cc(C(F)(F)F)n(C)c2=O)cc1OC", 40],
  ["Nc1c(O)c(Cl)cc(F)c1N1C(=O)C2CCCCN2C1=S (single isomer, unassigned)", 99],
  ["COc1cccc(OC)c1OC(=O)Nc1c(C)c(Cl)cc(F)c1-n1c(=O)cc(C(F)(F)F)n(C)c1=O", 20],
  ["C#CCOc1c(Cl)cc(Cl)c(-n2nnn(CCCF)c2=O)c1N", 0],
  ["COc1c(Cl)cc(F)c(-n2c(=O)n3n(c2=O)CCCC3)c1NC(=O)c1ccc(F)cc1F", 20]
]}

====

Test system: common ragweed (Ambrosia artemisizfolia L., AMBEL)
method_description: Pre-emerge test, greenhouse herbicide activity screening
Assay type: in vivo
test_settings: pre-emerge, 63 g ai/ha, 14 days after application, rating scale 0-100
Description: A standard greenhouse herbicide activity screening system was used to evaluate the herbicidal efficacy and crop safety of these test compounds. […] At 14 days after application of the test materials, phytotoxicity ratings were recorded. […]
This listing pairs compounds with measured phytotoxicity rating AMBEL.

{"columns": ["compound", "assay_system", "phytotoxicity rating AMBEL"],
 "data": [
  ["CCCOC(=O)C(Cl)Cc1c(OCC)c(Cl)cc(F)c1-n1c(=O)cc(C(F)(F)F)n(C)c1=O (stereo not drawn)", "common ragweed (Ambrosia artemisizfolia L., AMBEL)", 100],
  ["CCOC(=O)C(Cl)Cc1c(OCC)c(Cl)cc(F)c1-n1c(=O)cc(C(F)(F)F)n(C)c1=O (stereo not drawn)", "common ragweed (Ambrosia artemisizfolia L., AMBEL)", 20],
  ["C=CC=NNc1c(OC)c(Cl)cc(F)c1-n1c(=O)cc(C(F)(F)F)n(C)c1=O", "common ragweed (Ambrosia artemisizfolia L., AMBEL)", 100],
  ["CCOC(=O)C(Cl)Cc1c(OC)c(Cl)cc(F)c1-n1nc(C(F)(F)F)n(C)c1=O (stereo not drawn)", "common ragweed (Ambrosia artemisizfolia L., AMBEL)", 0],
  ["COc1c(Cl)cc(F)c(-n2c(=O)cc(C(F)(F)F)n(C)c2=O)c1CC(C)(Cl)C(=O)OCCSC (stereo not drawn)", "common ragweed (Ambrosia artemisizfolia L., AMBEL)", 0],
  ["CCOc1c(Cl)cc(F)c(-n2c(=O)cc(C(F)(F)F)n(C)c2=O)c1Cl", "common ragweed (Ambrosia artemisizfolia L., AMBEL)", 0]
]}

====

System: barnyardgrass (Echinochloa crus-galli, ECHCG)
method_description: Pre-emerge test, greenhouse herbicide activity screening
Type: in vivo
test_settings: 63 g ai/ha; pre-emerge; rated 14 days after application; 0 = no damage, 100 = complete death
Protocol: A standard greenhouse herbicide activity screening system was used to evaluate the herbicidal efficacy and crop safety of these test compounds. […] At 14 days after application of the test materials, phytotoxicity ratings were recorded. […]
This listing pairs compounds with measured Pre-emerge Herbicidal Activity ECHCG (phytotoxicity rating, scale 0-100).
observable: Pre-emerge Herbicidal Activity ECHCG (phytotoxicity rating, scale 0-100)

{"columns": ["chemical_string", "experimental_result"],
 "data": [
  ["COc1c(Cl)cc(F)c(-n2c(=O)cc(C(F)(F)F)n(N)c2=O)c1N", 90],
  ["CCOc1c(Cl)cc(F)c(-n2c(=O)cc(C(F)(F)F)n(C)c2=O)c1N", 75],
  ["COC(=O)C(=O)Nc1c(OC)c(Cl)cc(F)c1-n1c(=O)cc(C(F)(F)F)n(C)c1=O", 0],
  ["COC(=O)C=CCOc1c(Cl)cc(F)c(-n2c(=O)cc(C(F)(F)F)n(C)c2=O)c1N", 50],
  ["CCc1ccc(C(=O)Nc2c(OC)c(Cl)cc(F)c2-n2c(=O)cc(C(F)(F)F)n(C)c2=O)cc1", 50],
  ["COc1c(Cl)cc(F)c(-n2c(=O)c(NC(=O)C(F)(F)F)c(C(F)(F)F)n(C)c2=O)c1NC(=O)C(F)(F)F", 0],
  ["COc1c(Cl)cc(F)c(-n2c(=O)cc(C(F)(F)F)n(C)c2=O)c1N=CN(C)C", 0],
  ["C=Cc1ccc(C(=O)Nc2c(OC)c(Cl)cc(F)c2-n2c(=O)cc(C(F)(F)F)n(C)c2=O)cc1", 40],
  ["Cn1c(C(F)(F)F)cc(=O)n(-c2c(F)cc(Cl)c(O)c2N)c1=O", 0],
  ["COc1c(Cl)cc(F)c(-n2c(=O)cc(C(F)(F)F)n(C)c2=O)c1N(C(=O)C=C(C)C)C(=O)C=C(C)C", 0]
]}
